# Test system: TRPC4 (transient receptor potential cation channel C4 beta), mouse
# Test Name: potentiation of DAMGO EC20 TRPC4 response – cell-based, second round, Fluo-4, HEK293 TRPC4beta/mu-opioid, 1 µM, confirmation (AID 2554)
# Protocol Conditions: DAMGO EC20, Fluo-4 calcium flux, at 1 µM
The source made the active and inactive calls.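 The calls were made as follows: active = primary screen hit whose fluorescence ratio, in both repeats, exceeds the weak agonist control mean by 3 SD; inactive = the rest.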
The reply should be one of these categories: T (active), F (inactive)

// outcome(item) with item = Cc1sc2ncnc(NCC(c3ccco3)N(C)C)c2c1C (configuration not stated) F

Would you mind doing Cc1cc(C(C)(C)C)cc(S(=O)(=O)Nc2cccc(C(=O)O)c2)c1C as well? F

Would you mind doing Cc1ccc(Oc2ccccc2/C=N/O)cc1 as well? F

Would you mind doing COc1ccc(CNC(=O)CN(C)Cc2ccccc2F)cc1OC as well? F

Would you mind doing CCOC(=O)C1(CCOC)CCN(C(C)CCc2ccc(OC)cc2)CC1 (configuration not stated) as well? F

Would you mind doing COc1ccc(NC(=O)c2c[nH]n3c(=O)cc(C4CCN(C(=O)OC(C)(C)C)CC4)nc23)cc1Cl as well? F

Would you mind doing Cc1noc(C)c1COC(=O)[C@@H](NC(=O)c1ccccc1Cl)C(C)C as well? F

Would you mind doing O=C(O)CCNc1nc(-c2ccccc2)c2cc(Br)ccc2n1 as well? T

Would you mind doing CCc1cccc(C)c1NC(=S)NCC(c1cccnc1)N(C)C (configuration not stated) as well? F

Would you mind doing CC(=O)N1CCN(c2ccccc2NC(=O)c2cccs2)CC1 as well? F

Would you mind doing O=Cc1cc(N=Nc2ccccc2Cl)ccc1O as well? F

Would you mind doing O=[N+]([O-])c1ccc(CN2CCN(Cc3c[nH]c4ccccc34)CC2)cc1 as well? F
